system: LG0703-F948-PDC complex spheroid viability; test: Anticancer human tumor LG0703-F948-PDC patient-derived lung adenocarcinoma cell line growth inhibition [RAS]; conditions: second compound 0.316 µM; first compound 0.3 µM; hits give low values
Listing: viability, T/C of selected molecules
ENDPOINT_NAME: viability, T/C (%)

| MOLECULE | ASSAY_RESULT |
| --- | --- |
| CCc1c2c(nc3ccc(O)cc13)-c1cc3c(c(=O)n1C2)COC(=O)[C@]3(O)CC + C=CC(=O)N1CCN(c2nc(OCC3CCCN3C)nc3c(F)c(-c4nc(N)cc(C)c4C(F)(F)F)c(Cl)cc23)C(C)C1 | 24.3 |
| CC1(C)CCC(Nc2ncc(C(F)(F)F)c(-c3c[nH]c4c(P(C)(C)=O)c(C#N)ccc34)n2)CN1 (centres undefined) + C#Cc1c(F)ccc2cc(O)cc(-c3ncc4c(N5CC6CCC(C5)N6)nc(OCC56CCCN5CC(F)C6)nc4c3F)c12 | 71.2 |
| CCc1c2c(nc3ccc(O)cc13)-c1cc3c(c(=O)n1C2)COC(=O)[C@]3(O)CC + C#Cc1c(F)ccc2cc(O)cc(-c3ncc4c(N5CC6CCC(C5)N6)nc(OCC56CCCN5CC(F)C6)nc4c3F)c12 | 20.2 |
| CC1(C)CCC(Nc2ncc(C(F)(F)F)c(-c3c[nH]c4c(P(C)(C)=O)c(C#N)ccc34)n2)CN1 (centres undefined) + C=CC(=O)N1CCN(c2nc(OCC3CCCN3C)nc3c(F)c(-c4nc(N)cc(C)c4C(F)(F)F)c(Cl)cc23)C(C)C1 | 67.3 |

---

tested on: LG0703-F948-PDC complex spheroid viability; test: Anticancer human tumor LG0703-F948-PDC cell line growth inhibition [RAS]; conditions: second compound 0.000949 µM; first compound 0.316 µM; hits give low values;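 also: spheroids exposed to agents for 7 days; 100% = DMSO vehicle wells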

| COMPOUND | viability, T/C, % |
| --- | --- |
| C[C@@H](NC(=O)c1ncnc(N)c1Cl)c1ncc(C(=O)Nc2cc(C(F)(F)F)c(Cl)cn2)s1 + CCn1c(-c2cccnc2C(C)OC)c2c3cc(ccc31)N1CCOC(CC(NC(=O)C(C(C)C)N(C)C(=O)C3(F)CCN(C(=O)C#CC(C)(C)N(C)C)CC3)C(=O)N3CCCC(N3)C(=O)OCC(C)(C)C2)C1 | 118 |
| CC1(O)CCCC1n1c(=O)c(C(F)F)cc2cnc(NC3CCN(S(C)(=O)=O)CC3)nc21 (stereo not drawn) + CCn1c(-c2cc(N3CCN(C)CC3)cnc2C(C)OC)c2c3cc(ccc31)-c1csc(n1)CC(NC(=O)C1CC1C)C(=O)N1CCCC(N1)C(=O)OCC(C)(C)C2 | 69.7 |
| Nc1ccn(C2OC(CO)C(O)C2(F)F)c(=O)n1 (stereo not drawn) + CCn1c(-c2cccnc2C(C)OC)c2c3cc(ccc31)N1CCOC(CC(NC(=O)C(C(C)C)N(C)C(=O)C3(F)CCN(C(=O)C#CC(C)(C)N(C)C)CC3)C(=O)N3CCCC(N3)C(=O)OCC(C)(C)C2)C1 | 32 |

---

test system: LG0703-F948-PDC complex spheroid viability; assay: Anticancer human tumor LG0703-F948-PDC cell line growth inhibition [RAS]; conditions: second compound 10 µM; first compound 1 µM; hits give low values;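 also: spheroids exposed to agents for 7 days; 100% = DMSO vehicle wells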

| COMPOUND | viability, T/C, % |
| --- | --- |
| CC(Nc1ccc2c(c1)OCCn1cc(N3C(=O)OCC3C(F)F)nc1-2)C(N)=O (stereo not drawn) + C#Cc1c(F)ccc2cc(O)cc(-c3ncc4c(N5CC6CCC(C5)N6)nc(OCC56CCCN5CC(F)C6)nc4c3F)c12 | 7.38 |
| NC1c2ccccc2OC12CCN(c1cnc3c(N4CCCc5ncccc54)n[nH]c3n1)CC2 (stereo not drawn) + C#Cc1c(F)ccc2cc(O)cc(-c3ncc4c(N5CC6CCC(C5)N6)nc(OCC56CCCN5CC(F)C6)nc4c3F)c12 | 2.35 |
| CC(=O)OC12COC1CC(O)C1(C)C(=O)C(O)C3=C(C)C(OC(=O)C(O)C(NC(=O)OC(C)(C)C)c4ccccc4)CC(O)(C(OC(=O)c4ccccc4)C21)C3(C)C (stereo not drawn) + C#Cc1c(F)ccc2cc(O)cc(-c3ncc4c(N5CC6CCC(C5)N6)nc(OCC56CCCN5CC(F)C6)nc4c3F)c12 | 11.8 |

---

Test system: LG0703-F948-PDC complex spheroid viability
Experiment: Anticancer human tumor LG0703-F948-PDC cell line growth inhibition [RAS];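 also: spheroids exposed to agents for 7 days; 100% = DMSO vehicle wells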
Settings: second compound 0.00949 µM; first compound 0.000949 µM; hits give low values
Text: RAS pathway inhibitors in Combinations in Complex Spheroids A high-throughput screen of multi-cell type tumor spheroids was designed to identify active combinations of RAS pathway inhibitors and targeted small molecules. Complex spheroids include a stromal component modeled by human endothelial cells (HUVEC) and fibroblasts modeled by human mesenchymal stem cells (MSCs). […] Compounds. […] If the clinical Cmax for an agent had not been determined, the highest concentration tested was 10 microM. […]
Listing: viability, T/C of selected compounds

| COMPOUND | viability, T/C |
| --- | --- |
| CC1(C)CCC(Nc2ncc(C(F)(F)F)c(-c3c[nH]c4c(P(C)(C)=O)c(C#N)ccc34)n2)CN1 (centres undefined) + CCn1c(-c2cccnc2C(C)OC)c2c3cc(ccc31)N1CCOC(CC(NC(=O)C(C(C)C)N(C)C(=O)C3(F)CCN(C(=O)C#CC(C)(C)N(C)C)CC3)C(=O)N3CCCC(N3)C(=O)OCC(C)(C)C2)C1 | 75% |
| CC1(C)CCC(Nc2ncc(C(F)(F)F)c(-c3c[nH]c4c(P(C)(C)=O)c(C#N)ccc34)n2)CN1 (centres undefined) + CCn1c(-c2cc(N3CCN(C)CC3)cnc2C(C)OC)c2c3cc(ccc31)-c1csc(n1)CC(NC(=O)C1CC1C)C(=O)N1CCCC(N1)C(=O)OCC(C)(C)C2 | 27.3% |
| CCc1c2c(nc3ccc(O)cc13)-c1cc3c(c(=O)n1C2)COC(=O)[C@]3(O)CC + CCn1c(-c2cccnc2C(C)OC)c2c3cc(ccc31)N1CCOC(CC(NC(=O)C(C(C)C)N(C)C(=O)C3(F)CCN(C(=O)C#CC(C)(C)N(C)C)CC3)C(=O)N3CCCC(N3)C(=O)OCC(C)(C)C2)C1 | 111% |
| CCc1c2c(nc3ccc(O)cc13)-c1cc3c(c(=O)n1C2)COC(=O)[C@]3(O)CC + CCn1c(-c2cc(N3CCN(C)CC3)cnc2C(C)OC)c2c3cc(ccc31)-c1csc(n1)CC(NC(=O)C1CC1C)C(=O)N1CCCC(N1)C(=O)OCC(C)(C)C2 | 25.6% |

---

tested on: LG0703-F948-PDC complex spheroid viability; experiment: Anticancer human tumor LG0703-F948-PDC cell line growth inhibition [RAS]; settings: second compound 0.316 µM; first compound 1 µM; hits give low values;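 also: spheroids exposed to agents for 7 days; 100% = DMSO vehicle wells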
Listing: viability, T/C of selected compounds

| COMPOUND | UNIT_OF_MEASURE | viability, T/C |
| --- | --- | --- |
| C=CC(=O)Nc1cc(Nc2nccc(-c3cn(C)c4ccccc34)n2)c(OC)cc1N(C)CCN(C)C + C=CC(=O)N1CCN(c2nc(OCC3CCCN3C)nc3c(F)c(-c4nc(N)cc(C)c4C(F)(F)F)c(Cl)cc23)C(C)C1 | % | 6.05 |
| O=C(c1ccc(F)c(F)c1Nc1ccc(I)cc1F)N1CC(O)([C@@H]2CCCCN2)C1 + C=CC(=O)N1CCN(c2nc(OCC3CCCN3C)nc3c(F)c(-c4nc(N)cc(C)c4C(F)(F)F)c(Cl)cc23)C(C)C1 | % | 17.5 |
| C[C@@H](NC(=O)c1ncnc(N)c1Cl)c1ncc(C(=O)Nc2cc(C(F)(F)F)c(Cl)cn2)s1 + C=CC(=O)N1CCN(c2nc(OCC3CCCN3C)nc3c(F)c(-c4nc(N)cc(C)c4C(F)(F)F)c(Cl)cc23)C(C)C1 | % | 114 |
| Nc1ccn(C2OC(CO)C(O)C2(F)F)c(=O)n1 (centres undefined) + C=CC(=O)N1CCN(c2nc(OCC3CCCN3C)nc3c(F)c(-c4nc(N)cc(C)c4C(F)(F)F)c(Cl)cc23)C(C)C1 | % | 29.1 |
| CC1(O)CCCC1n1c(=O)c(C(F)F)cc2cnc(NC3CCN(S(C)(=O)=O)CC3)nc21 (centres undefined) + C=CC(=O)N1CCN(c2nc(OCC3CCCN3C)nc3c(F)c(-c4nc(N)cc(C)c4C(F)(F)F)c(Cl)cc23)C(C)C1 | % | 75.7 |
| NC1c2ccccc2OC12CCN(c1cnc3c(N4CCCc5ncccc54)n[nH]c3n1)CC2 (centres undefined) + C#Cc1c(F)ccc2cc(O)cc(-c3ncc4c(N5CC6CCC(C5)N6)nc(OCC56CCCN5CC(F)C6)nc4c3F)c12 | % | 6.72 |
| CC(Nc1ccc2c(c1)OCCn1cc(N3C(=O)OCC3C(F)F)nc1-2)C(N)=O (centres undefined) + C#Cc1c(F)ccc2cc(O)cc(-c3ncc4c(N5CC6CCC(C5)N6)nc(OCC56CCCN5CC(F)C6)nc4c3F)c12 | % | 50.8 |
| Nc1ccn(C2OC(CO)C(O)C2(F)F)c(=O)n1 (centres undefined) + C#Cc1c(F)ccc2cc(O)cc(-c3ncc4c(N5CC6CCC(C5)N6)nc(OCC56CCCN5CC(F)C6)nc4c3F)c12 | % | 23.5 |
| CC1(O)CCCC1n1c(=O)c(C(F)F)cc2cnc(NC3CCN(S(C)(=O)=O)CC3)nc21 (centres undefined) + C#Cc1c(F)ccc2cc(O)cc(-c3ncc4c(N5CC6CCC(C5)N6)nc(OCC56CCCN5CC(F)C6)nc4c3F)c12 | % | 65.9 |
| Cc1nc(N2CCC3(CC2)COC(C)C3N)c(CO)nc1Sc1ccnc(N)c1Cl (centres undefined) + C#Cc1c(F)ccc2cc(O)cc(-c3ncc4c(N5CC6CCC(C5)N6)nc(OCC56CCCN5CC(F)C6)nc4c3F)c12 | % | 26.4 |
| C=CC(=O)N1CCN(c2nc(OCC3CCCN3C)nc3c(F)c(-c4nc(N)cc(C)c4C(F)(F)F)c(Cl)cc23)C(C)C1 (centres undefined) + C#Cc1c(F)ccc2cc(O)cc(-c3ncc4c(N5CC6CCC(C5)N6)nc(OCC56CCCN5CC(F)C6)nc4c3F)c12 | % | 84.6 |
| CC(C)NCC(C(=O)N1CCN(c2ncnc3c2C(C)CC3O)CC1)c1ccc(Cl)cc1 (centres undefined) + C#Cc1c(F)ccc2cc(O)cc(-c3ncc4c(N5CC6CCC(C5)N6)nc(OCC56CCCN5CC(F)C6)nc4c3F)c12 | % | 35 |
| O=C(c1ccc(F)c(F)c1Nc1ccc(I)cc1F)N1CC(O)([C@@H]2CCCCN2)C1 + C#Cc1c(F)ccc2cc(O)cc(-c3ncc4c(N5CC6CCC(C5)N6)nc(OCC56CCCN5CC(F)C6)nc4c3F)c12 | % | 22.3 |
| C=CC(=O)Nc1cc(Nc2nccc(-c3cn(C)c4ccccc34)n2)c(OC)cc1N(C)CCN(C)C + C#Cc1c(F)ccc2cc(O)cc(-c3ncc4c(N5CC6CCC(C5)N6)nc(OCC56CCCN5CC(F)C6)nc4c3F)c12 | % | 8.31 |
| CCC(CC)c1cc(NC2CCC(N)C2)n2nccc2n1 (centres undefined) + C#Cc1c(F)ccc2cc(O)cc(-c3ncc4c(N5CC6CCC(C5)N6)nc(OCC56CCCN5CC(F)C6)nc4c3F)c12 | % | 66.5 |
| CC(Nc1ccc2c(c1)OCCn1cc(N3C(=O)OCC3C(F)F)nc1-2)C(N)=O (centres undefined) + C=CC(=O)N1CCN(c2nc(OCC3CCCN3C)nc3c(F)c(-c4nc(N)cc(C)c4C(F)(F)F)c(Cl)cc23)C(C)C1 | % | 44.3 |
| CC(C)NCC(C(=O)N1CCN(c2ncnc3c2C(C)CC3O)CC1)c1ccc(Cl)cc1 (centres undefined) + C=CC(=O)N1CCN(c2nc(OCC3CCCN3C)nc3c(F)c(-c4nc(N)cc(C)c4C(F)(F)F)c(Cl)cc23)C(C)C1 | % | 44.2 |
| CCN1CCN(Cc2ccc(Nc3ncc(F)c(-c4cc(F)c5nc(C)n(C(C)C)c5c4)n3)nc2)CC1 + C=CC(=O)N1CCN(c2nc(OCC3CCCN3C)nc3c(F)c(-c4nc(N)cc(C)c4C(F)(F)F)c(Cl)cc23)C(C)C1 | % | 64.3 |
| CC(=O)OC12COC1CC(O)C1(C)C(=O)C(O)C3=C(C)C(OC(=O)C(O)C(NC(=O)OC(C)(C)C)c4ccccc4)CC(O)(C(OC(=O)c4ccccc4)C21)C3(C)C (centres undefined) + C#Cc1c(F)ccc2cc(O)cc(-c3ncc4c(N5CC6CCC(C5)N6)nc(OCC56CCCN5CC(F)C6)nc4c3F)c12 | % | 26.2 |
